- tgt: T1, Sumo-SiwR (Mycobacterium smegmatis, UniProt A0QS56 1-320)
- T1 sequence: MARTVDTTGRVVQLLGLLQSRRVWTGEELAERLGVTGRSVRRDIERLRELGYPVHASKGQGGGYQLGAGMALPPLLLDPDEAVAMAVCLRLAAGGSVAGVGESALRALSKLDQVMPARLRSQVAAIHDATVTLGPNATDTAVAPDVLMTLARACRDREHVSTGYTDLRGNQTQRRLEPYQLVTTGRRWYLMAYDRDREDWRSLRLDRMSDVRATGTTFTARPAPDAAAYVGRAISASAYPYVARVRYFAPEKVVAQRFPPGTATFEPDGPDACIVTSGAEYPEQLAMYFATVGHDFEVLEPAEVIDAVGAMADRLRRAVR
- protocolSummary: fluorescence anisotropy; EMSA: 5 mM HEPES-KOH pH 7.0, 30 mM NaCl, 2.5% Ficoll 400K, 1% glycerol, 5 nM probe (10 nM in Fig. 2a legend), 37 °C 15 min; anisotropy: 5 mM HEPES-KOH pH 7, 30
- experimentalSetup: protein: recombinant; tags: His6-TEV-Sumo N-terminal fusion; chain copies: 2; label: FAM
pKd: −log10 of the molar value.
attributeMeasured: pKd

• TTTTTTTTTTTTTTTTTTTT (ssDNA) [polyT20] = 6.74
